Target: T1, in-line fusion protein of human IL-36R extracellular domain and IL1RAcP extracellular domain expressed with … (human; mouse, UniProt Q9HB29 20-337; Q9NPH3 21-359, limits assumed)
T1 construct: not shown: mouse IgG2a Fc
T1 sequence (looked up): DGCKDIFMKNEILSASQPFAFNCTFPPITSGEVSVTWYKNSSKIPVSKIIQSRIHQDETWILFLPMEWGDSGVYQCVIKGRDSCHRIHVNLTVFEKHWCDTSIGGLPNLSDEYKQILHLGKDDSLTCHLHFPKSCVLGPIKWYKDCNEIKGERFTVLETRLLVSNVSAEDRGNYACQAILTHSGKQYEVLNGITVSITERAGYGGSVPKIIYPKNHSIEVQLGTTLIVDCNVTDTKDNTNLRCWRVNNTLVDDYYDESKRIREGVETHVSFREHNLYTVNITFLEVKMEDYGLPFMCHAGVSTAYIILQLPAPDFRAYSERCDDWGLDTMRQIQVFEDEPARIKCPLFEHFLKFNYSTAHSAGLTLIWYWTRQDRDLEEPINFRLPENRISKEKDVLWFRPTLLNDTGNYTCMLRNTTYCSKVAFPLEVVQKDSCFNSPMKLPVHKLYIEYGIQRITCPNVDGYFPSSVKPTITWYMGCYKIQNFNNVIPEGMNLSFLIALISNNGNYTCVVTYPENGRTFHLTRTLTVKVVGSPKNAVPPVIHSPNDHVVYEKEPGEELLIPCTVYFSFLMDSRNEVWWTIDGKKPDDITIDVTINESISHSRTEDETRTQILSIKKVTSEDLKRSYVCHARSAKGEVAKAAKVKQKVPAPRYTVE
Assay: SPR Biacore 4000, mAb captured on anti-hFc, 25C
# reported koff; entries follow

binder	scale-unit	koff
H4H14758P (antibody, human IgG4 S228P, kappa, V domains shown, Fully human anti-IL-36R antibody) VH: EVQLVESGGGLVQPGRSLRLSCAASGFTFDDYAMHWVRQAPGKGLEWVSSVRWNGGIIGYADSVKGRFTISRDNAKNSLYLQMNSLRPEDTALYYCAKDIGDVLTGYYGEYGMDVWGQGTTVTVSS VL: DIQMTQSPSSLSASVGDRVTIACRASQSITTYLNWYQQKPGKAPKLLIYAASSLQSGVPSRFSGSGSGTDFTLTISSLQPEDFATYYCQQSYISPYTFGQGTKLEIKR	s⁻¹	0.00018
H4H14709P (antibody, human IgG4 S228P, kappa, V domains shown, Fully human anti-IL-36R antibody) VH: EVQLVESGGGLVQPGGSLRLSCAASGFTFSDYAMSWVRQAPGKGLEWVSGISGNGGDTYYGDFVKGRFTISRDNSKNTLYLQMNSLRGEDTAAYFCVIDLDYWGQGTLVTVSS VL: DIQMTQSPSTLSASEGDRVTITCRASQSISSWLAWYQQKPGKAPRLLIYKASILGDGVPSRFSGSGSGTEFTLTISSLQPDDFATYYCHQYNSYLWTFGQGTKVEIKR	s⁻¹	8.07e-05
H4H14708P2 (antibody, human IgG4 S228P, kappa, V domains shown, Fully human anti-IL-36R antibody) VH: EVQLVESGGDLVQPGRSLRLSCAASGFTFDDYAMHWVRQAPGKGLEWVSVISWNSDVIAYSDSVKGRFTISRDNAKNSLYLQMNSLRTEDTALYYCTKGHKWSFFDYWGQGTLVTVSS VL: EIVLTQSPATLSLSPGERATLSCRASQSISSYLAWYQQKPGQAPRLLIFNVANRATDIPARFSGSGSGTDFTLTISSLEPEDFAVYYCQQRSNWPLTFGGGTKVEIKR	s⁻¹	0.000129
